These data points were gathered from patent US11485742B2.

# Emax listing for each entry below
target_system: Cloned human M1 receptor (CHRM1) (Homo sapiens)
Construct: expressed in transfected cells; host or cells: HEK293
Sequence (P11229 whole entry): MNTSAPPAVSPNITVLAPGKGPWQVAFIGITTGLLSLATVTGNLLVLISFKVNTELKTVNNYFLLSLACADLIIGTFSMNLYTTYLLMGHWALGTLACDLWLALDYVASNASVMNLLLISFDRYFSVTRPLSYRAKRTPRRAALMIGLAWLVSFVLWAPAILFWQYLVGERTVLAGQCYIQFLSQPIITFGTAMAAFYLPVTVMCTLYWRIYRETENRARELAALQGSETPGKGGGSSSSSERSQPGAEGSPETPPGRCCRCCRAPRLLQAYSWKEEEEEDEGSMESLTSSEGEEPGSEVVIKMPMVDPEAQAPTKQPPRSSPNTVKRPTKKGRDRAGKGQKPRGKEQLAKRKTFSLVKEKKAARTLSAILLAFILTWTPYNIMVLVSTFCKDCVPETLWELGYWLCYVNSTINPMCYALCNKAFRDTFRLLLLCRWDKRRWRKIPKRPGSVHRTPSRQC
test_description: CHRM1 Ca++ Flux Assay (HEK293 M1 cells, agonist mode)
Assay type: cell-based
applied_conditions: Percent Activity (PA), read-out: M1 FDSS PA %
Counter-ions that a name gives are not always drawn.
property_name: Emax (%)

{"compound": "c1ccc(C2CCN([C@@H]3COC4(C3)CN(c3nncs3)C4)CC2)c(OC2COC2)c1 [Example 5Q, formate salt]", "target_system": "Cloned human M1 receptor (CHRM1) (Homo sapiens)", "property_name": "Emax", "number": 86}
{"compound": "Fc1ccc(OCC2CCOCC2)c(C2CCN([C@@H]3COC4(C3)CN(c3nnco3)C4)CC2)c1 [Example 1J]", "target_system": "Cloned human M1 receptor (CHRM1) (Homo sapiens)", "property_name": "Emax", "number": 73}
{"compound": "CC(C)(O)COc1ccc(F)cc1C1CCN([C@@H]2COC3(C2)CN(c2ncco2)C3)CC1 [Example 4K]", "target_system": "Cloned human M1 receptor (CHRM1) (Homo sapiens)", "property_name": "Emax", "number": 60}
{"compound": "COCCOc1ccc(F)cc1C1CCN([C@@H]2COC3(C2)CN(c2nncs2)C3)CC1 [Example 5S]", "target_system": "Cloned human M1 receptor (CHRM1) (Homo sapiens)", "property_name": "Emax", "number": 87}
{"compound": "c1ccc(C2CCN([C@@H]3COC4(C3)CN(c3ncco3)C4)CC2)c(OC2CC3(COC3)C2)c1 [Example 4M]", "target_system": "Cloned human M1 receptor (CHRM1) (Homo sapiens)", "property_name": "Emax", "number": 49}
{"compound": "Fc1ccc(OC[C@H]2COCCO2)c(C2CCN([C@@H]3COC4(C3)CN(c3nnco3)C4)CC2)c1 [Example 1C]", "target_system": "Cloned human M1 receptor (CHRM1) (Homo sapiens)", "property_name": "Emax", "number": 72}
